assay system: SIRT1 (Homo sapiens, UniProt Q96EB6)
Sequence (Q96EB6 whole entry): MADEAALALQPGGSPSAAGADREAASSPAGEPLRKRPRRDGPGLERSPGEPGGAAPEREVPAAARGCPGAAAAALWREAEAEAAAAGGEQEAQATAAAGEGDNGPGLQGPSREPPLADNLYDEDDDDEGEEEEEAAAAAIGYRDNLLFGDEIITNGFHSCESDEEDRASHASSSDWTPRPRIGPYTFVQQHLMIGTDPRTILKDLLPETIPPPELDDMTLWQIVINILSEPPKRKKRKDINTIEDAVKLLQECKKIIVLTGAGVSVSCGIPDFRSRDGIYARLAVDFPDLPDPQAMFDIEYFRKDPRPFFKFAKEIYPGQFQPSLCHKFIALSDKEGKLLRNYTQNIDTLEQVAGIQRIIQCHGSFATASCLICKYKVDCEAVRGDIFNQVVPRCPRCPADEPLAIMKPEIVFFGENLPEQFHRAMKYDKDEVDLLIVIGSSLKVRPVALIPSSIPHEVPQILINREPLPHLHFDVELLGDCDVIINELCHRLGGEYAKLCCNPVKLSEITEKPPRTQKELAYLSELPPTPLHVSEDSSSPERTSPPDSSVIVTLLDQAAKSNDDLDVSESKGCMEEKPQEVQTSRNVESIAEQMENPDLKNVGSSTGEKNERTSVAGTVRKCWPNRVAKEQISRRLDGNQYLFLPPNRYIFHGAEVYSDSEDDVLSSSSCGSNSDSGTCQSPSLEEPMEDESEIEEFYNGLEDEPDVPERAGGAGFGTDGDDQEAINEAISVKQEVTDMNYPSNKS
assay protocol: Mass spectrometry based assay to identify modulators of SIRT1 activity (deacetylation of p53-based acetylated peptide substrate)
Format: biochemical
conditions used: 25 min, SIRT1 activation, read-out: % FOLD ACT. (percent maximum fold activation)
Source text: A mass spectrometry based assay was used to identify modulators of SIRT1 activity. The mass spectrometry based assay utilizes a peptide having 20 amino acid residues as follows: Ac-EE-K(biotin)-GQSTSSHSK(Ac)NleSTEG-K(5TMR)-EE-NH2 (SEQ ID NO: 1) wherein K(Ac) is an acetylated lysine residue and Nle is a norleucine. The peptide is labeled with the fluorophore 5TMR (excitation 540 nm/emission 580 nm) at the C-terminus. The sequence of the peptide substrate is based on p53 with several modifications. […]
Catalogue of Emax readings, one per entry.

Given the compound O=C(Nc1cncc(F)c1)N1CCCOc2ccc(-c3cccc(Cl)c3)nc21 [Compound 853] , what is its reported Emax?
> 200%

And the next one, CCN1CCCN(C(=O)Nc2ccc(F)cn2)c2nc(-c3cccc(Cl)c3)ccc21 [Compound 807] ?
≤ 200%

Next entry: O=C(Nc1ccccn1)N1CCCc2ccc(-c3cccc(Cl)c3)nc21 [Compound 652]
> 200%
